# test target: human IL-17A/F (human, UniProt Q16552 24-155; Q96PD4 31-163)
# Sequence (Q16552 24-155 limits assumed, chain 1 of 2): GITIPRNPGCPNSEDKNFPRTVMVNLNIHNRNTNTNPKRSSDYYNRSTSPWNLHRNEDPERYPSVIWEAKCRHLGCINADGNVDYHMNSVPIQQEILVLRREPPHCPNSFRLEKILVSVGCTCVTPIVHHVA
# Sequence (Q96PD4 31-163 limits assumed, chain 2 of 2): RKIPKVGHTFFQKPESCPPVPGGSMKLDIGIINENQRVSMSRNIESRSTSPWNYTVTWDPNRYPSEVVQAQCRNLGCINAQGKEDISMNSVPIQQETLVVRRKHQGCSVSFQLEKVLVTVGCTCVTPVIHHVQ
# method: cell-based or functional assay
recorded metric: Potency (pM), IL-17-driven IL-6 production in HS27 cells
The answer is to be given in pM; state only the numeric part.

Q. What measured Potency (pM), IL-17-driven IL-6 production in HS27 cells goes with IL17-B6-16 (antibody, V domains shown, also called pJP247 B6.1 #16VH / pJP248 B6.1 #16Vk) VH: EVQLVQSGAEVKMPGSSLKISCKASGGSFRGYGISWVRQAPGQGLEWMGGITPFFGWADYAQKFQGRVTITADESTTTAYMELSGLTSDDTAVYYCARDPNEFWNGYYDTHHFDYWGQGTTVTVSS VL: EIVLTQSPDFQSVTPKEKVTITCRASQDIGSALHWYQQKPDQSPKLLIKYASHSVSGVPSRFSGSGSGTDFTLTINGLEAEDAGTYYCHQSDILPHTFGPGTKVDIK ?
A. 114
